Source: patent US11236106B2

- Tested target: menin and MLL (menin, Flag tagged; biotinylated MLL1 peptide 1-46aa) (Homo sapiens, UniProt O00255)
- Sequence (O00255 1-610): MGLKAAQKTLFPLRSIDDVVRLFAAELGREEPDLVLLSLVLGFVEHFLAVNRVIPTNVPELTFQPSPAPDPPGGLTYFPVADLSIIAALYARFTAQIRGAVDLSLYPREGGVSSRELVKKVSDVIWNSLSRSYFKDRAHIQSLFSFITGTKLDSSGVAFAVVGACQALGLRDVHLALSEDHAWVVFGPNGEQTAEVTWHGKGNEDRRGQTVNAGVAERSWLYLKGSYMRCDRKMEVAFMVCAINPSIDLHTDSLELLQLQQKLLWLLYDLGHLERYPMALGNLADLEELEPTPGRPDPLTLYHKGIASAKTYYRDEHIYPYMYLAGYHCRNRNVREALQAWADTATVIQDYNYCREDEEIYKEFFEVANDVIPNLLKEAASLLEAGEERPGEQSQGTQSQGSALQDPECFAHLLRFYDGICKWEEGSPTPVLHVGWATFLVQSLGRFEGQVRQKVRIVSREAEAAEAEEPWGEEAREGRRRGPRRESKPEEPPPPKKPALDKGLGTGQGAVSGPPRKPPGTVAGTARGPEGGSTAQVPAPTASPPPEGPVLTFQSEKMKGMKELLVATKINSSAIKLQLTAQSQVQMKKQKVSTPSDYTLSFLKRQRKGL
- Protocol description: biochemical
Structures can show the parent of a compound that is named as a salt.
Metric name: pIC50
Lab note: report pIC50 as minus log10 of the concentration in molar units, number only.

In the examples that follow, each entry is paired with its recorded pIC50.
Compound	pIC50
COc1cc(-c2ccc(CN[C@H]3C[C@@H](O)[C@@H](N(C)c4ncnc5sc(CC(F)(F)F)cc45)C3)cc2)nnc1N1CCC1 [Example 105, hydrochloride]	8.10
COCCOc1nnc(-c2ccc(CN[C@H]3C[C@@H](O)[C@@H](N(C)c4nc(OC)nc5sc(CC(F)(F)F)cc45)C3)cc2)cc1OC [Example 109, hydrochloride]	9.15
CN(c1ncnc2sc(CC(F)(F)F)cc12)[C@H]1C[C@@H](NCc2ccc(-n3cnc4ccccc43)cc2)C[C@H]1O [Example 79, hydrochloride]	8.46
COc1nc(N(C)[C@H]2C[C@@H](NCc3ccc(-c4cc(OC)c(OC)cn4)cc3)C[C@H]2O)c2cc(CC(F)(F)F)sc2n1 [Example 116, hydrochloride]	9.00
COc1ncc(-c2ccc(CN[C@H]3C[C@@H](O)[C@@H](N(C)c4ncnc5sc(CC(F)(F)F)cc45)C3)cc2)nc1OC [Example 96, hydrochloride]	8.57
COc1nc(N(C)[C@H]2C[C@@H](NCc3ccc(-c4cc(OC)c(Oc5ccccc5)nn4)cc3)C[C@H]2O)c2cc(CC(F)(F)F)sc2n1 [Example 114, hydrochloride]	8.82
CCOc1cc(-c2ccc(CN[C@H]3C[C@@H](O)[C@@H](N(C)c4ncnc5sc(CC(F)(F)F)cc45)C3)cc2)cnc1OC [Example 80, hydrochloride]	7.81
COc1nc(N(C)[C@H]2C[C@@H](NCC3CC=C(c4cc(OC)c(OC)nn4)CC3)C[C@H]2O)c2cc(CC(F)(F)F)sc2n1 (mixture of isomers) [Example 125, hydrochloride]	8.82
COc1cncc(-c2ccc(CN[C@@H]3C[C@H](N(C)c4ncnc5sc(CC(F)(F)F)cc45)C[C@H]3O)cc2)c1 [Example 50, hydrochloride]	8.01
COc1cc(-c2ccc(CN[C@H]3C[C@@H](O)[C@@H](N(C)c4ncnc5sc(CC(F)(F)F)cc45)C3)cc2)nnc1OC1CCCOC1 (mixture of isomers) [Example 108, hydrochloride]	8.89

// fetch pIC50 given entry COc1nc(N(C)[C@H]2C[C@@H](NCc3ccc(-c4cc(OC)c(Cl)nn4)cc3)C[C@H]2O)c2cc(CC(F)(F)F)sc2n1 [Example 90, hydrochloride] 8.92
